Data credit: the OPERA property sets (Mansouri et al. 2018)

# logP listing for each entry below
# answer = number (no unit)

| Compound | logP |
| --- | --- |
| CCOC(=O)c1[nH]cc(-c2ccc(Cl)cc2)c1N1CCOCC1 | 3.9 |
| CC(C)(Cc1c[nH]c2ccccc12)NCC(O)CON=C(C1CC1)C1CC1 (configuration not stated) | 3.29 |

What value of logP has been recorded for this entry: CCCCOCCCNc1ncnc2c1ncn2C1OC(CO)C(O)C1O (configuration not stated)
1.3

Find the recorded logP belonging to "CNC(=O)Nc1ccc(C(=O)O)cc1" and report it.
1.1

logP for COc1c2c(cc3c1-c1ccc(OC)c(=O)cc1C(NC(C)=O)CC3)OCO2 (configuration not stated) ?
1.6

Reported logP for O=C1Nc2ccc(Cl)cc2C(c2ccccc2F)=NC1O (configuration not stated) : what is it?
1.81

What measured logP goes with "CNCCC=Cc1cccnc1" ?
1.13

// query logP value for entry "Cc1ccc(Br)cc1F"
3.64

Fill in the blank: the reported logP of C=CCNC(=O)N(CCCC(NC(C)=O)C(=O)NCc1ccccc1)Cc1ccccc1 (configuration not stated) is ____.
1.44

Fill in: logP of "CCCC(=NOCC)C1=C(O)CC(C)(C)OC1=O" is ___
2.56

Entry under review: "O=C1c2c(O)cccc2C(=CNc2ccccc2)c2cccc(O)c21" . Reported logP?
4.96

For OCC1OC(n2cnc3c(NCCCCc4ccccc4)ncnc32)C(O)C1O (configuration not stated) , what is its reported logP?
2.29

###

# if value of logP reaches 2, tag y; if it stays below, tag n

Assess whether reported logP for "Cc1ccc(CO)c(C=NNC(=O)c2ccc([N+](=O)[O-])cc2)c1O" sits at 2 or higher.
y

Please check the record "Clc1cc(Cl)c2c(oc3cccc(Cl)c32)c1Cl" and state if its logP is at or above 2.
y

Item "CC(=O)Nc1ccc(/C=C/c2n[nH]c(=O)cc2C)cc1" with logP of 2 or above?
n

Test whether the compound "CCC(CC)C(=O)NS(=O)(=O)c1ccc(C(F)(F)F)cc1[N+](=O)[O-]" records logP of 2 or higher.
y

Confirm if logP reported for the compound "O=c1cc(CSc2ccccn2)occ1O" is 2 or above.
n

###

Recorded logP by entry
Where a SMILES comes first, the peptide text is derived from it.

These solved cases illustrate the format of a correct answer.
| Compound | logP |
| --- | --- |
| CC(C)NC(=NC#N)NS(=O)(=O)c1cnccc1NC1CCCCCCC1 | 2.58 |
| CC(C)CC(NC(=O)C(N)Cc1ccc(O)cc1)C(=O)O (stereo not drawn) (H-Tyr-Leu-OH; configuration not given here) | -1.75 |
| COC(=O)C(C)NP(=O)(OCC1C=CC(n2cc(C)c(=O)[nH]c2=O)O1)Oc1cccc(C(F)(F)F)c1 (centres undefined) | 1.57 |

Recorded logP of CCC(C)C(N)C(=O)NC(C)C(=O)NC(C)C(=O)NC(C(=O)O)C(C)CC (centres undefined) (H-IAAI-OH; configuration not given here) , please.
-2.82

###

Rule: measured logP below 2 gets rule met; anything equal to or greater than 2 gets rule not met.

Here's what some known entries look like.
| Molecule | Category |
| --- | --- |
| Cn1c([N+](=O)[O-])cnc1-c1ccc(F)cc1 | rule met |
| Nc1nc(N)c2c(N3CCOCC3)cccc2n1 | rule met |
| CC1CCC2CC(=O)N(CCc3ccccc3)C3OC4(C)CCC1C23OO4 (configuration not stated) | rule not met |

Here's an entry: "c1ccc(CN2CCN(CCn3nc4ccccc4n3)CC2)cc1" . Is its logP below 2?
rule not met

Hi there! Is logP for "C[N+](C)([O-])CCCCc1ccccc1" below 2, do you know?
rule met

Record "CC(=O)NN=Cc1c(CO)ccc(C)c1O" : is its logP strictly below 2?
rule met

For this molecule, is logP lower than 2? "Nc1nnnn1-c1ccc(Br)cc1"
rule met
